Value source: the supplement of paper PMC9233669

# Test system: biotinyl-Ile-oxazolone
# PROTOCOL_DETAILS: self-aminoacylation, catalytic enhancement (BIO) (fold over background); higher = more active; k-Seq, kA / k0A0; sequences stand for … in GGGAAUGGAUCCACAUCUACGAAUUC…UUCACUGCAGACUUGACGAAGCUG
Variants at the floor of the assay were thinned out.
Please go through the items and note down their self-aminoacylation.
Please reply with the value in numeric form only.

Specify measured self-aminoacylation for AGGUUUGCUAAUAGUCGCAAA [Fam3.1 aminoacylation ribozyme variant] .
2.52

Specify measured self-aminoacylation for CCACACCUCAAGCAUUCGGUC [Fam1B.1 aminoacylation ribozyme variant] .
2.26

Specify measured self-aminoacylation for CCACACUUCAAGCCCUCGGUC [Fam1B.1 aminoacylation ribozyme variant] .
1.4

Specify measured self-aminoacylation for CUACGUCACACAAUCGGUCUG [Fam1A.1 aminoacylation ribozyme variant] .
0.999

###

# System: biotinyl-Met-oxazolone
# PROTOCOL_DETAILS: self-aminoacylation, catalytic enhancement (BMO) (fold over background); higher = more active; k-Seq, kA / k0A0; sequences stand for … in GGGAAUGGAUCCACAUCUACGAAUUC…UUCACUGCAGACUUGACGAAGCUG
Variants at the floor of the assay were thinned out.
ENDPOINT: self-aminoacylation
Please reply with the value in numeric form only.

# return self-aminoacylation for CCAAACUUCAAGCAAUCGGGC [Fam1B.1 aminoacylation ribozyme variant] , test system: biotinyl-Met-oxazolone
2.17

# return self-aminoacylation for AAUGACCUAGGUCAUCGGGUG [Fam2.2 aminoacylation ribozyme variant] , test system: biotinyl-Met-oxazolone
4.56

# return self-aminoacylation for CCACACUUCAAGCAAUCAGUG [Fam1B.1 aminoacylation ribozyme variant] , test system: biotinyl-Met-oxazolone
3.58

# return self-aminoacylation for CUACUUCAAACAAUAGGUCGG [Fam1A.1 aminoacylation ribozyme variant] , test system: biotinyl-Met-oxazolone
0.643

# return self-aminoacylation for CUACACUUCAAGCAAUCGGGC [Fam1B.1 aminoacylation ribozyme variant] , test system: biotinyl-Met-oxazolone
1.95

# return self-aminoacylation for AUUCACCUAGGGCAUCGGUUG [Fam2.2 aminoacylation ribozyme variant] , test system: biotinyl-Met-oxazolone
1.05

# return self-aminoacylation for AAUCACCUAUGUCAUCGGGUG [Fam2.2 aminoacylation ribozyme variant] , test system: biotinyl-Met-oxazolone
4.23

# return self-aminoacylation for AUUACCAUUGUCAUCGAGUGA [Fam2.1 aminoacylation ribozyme variant] , test system: biotinyl-Met-oxazolone
7.41

# return self-aminoacylation for AUUCAUCUAGGUCAUCGGGUU [Fam2.2 aminoacylation ribozyme variant] , test system: biotinyl-Met-oxazolone
2.46

# return self-aminoacylation for AUUACCCUGGCCAUCCAGUGA [Fam2.1 aminoacylation ribozyme variant] , test system: biotinyl-Met-oxazolone
7.34

# return self-aminoacylation for UUACUUCAAACAACCGGUCUG [Fam1A.1 aminoacylation ribozyme variant] , test system: biotinyl-Met-oxazolone
1.03

# return self-aminoacylation for AGGCACCUAGGUCAUCGGGUG [Fam2.2 aminoacylation ribozyme variant] , test system: biotinyl-Met-oxazolone
3.14

# return self-aminoacylation for AAGUUUGUUAAUUGUCGCAAG [Fam3.1 aminoacylation ribozyme variant] , test system: biotinyl-Met-oxazolone
0.992

# return self-aminoacylation for AUUCACCUGGCUCAUCGGGUG [Fam2.2 aminoacylation ribozyme variant] , test system: biotinyl-Met-oxazolone
1.79

# return self-aminoacylation for AUUACCCUGGUCAGAGAGUGA [Fam2.1 aminoacylation ribozyme variant] , test system: biotinyl-Met-oxazolone
7.04

# return self-aminoacylation for AUUCACCGAGGUCACCGGGUG [Fam2.2 aminoacylation ribozyme variant] , test system: biotinyl-Met-oxazolone
9.61

# return self-aminoacylation for CCACACUCCAAGCAAUCGGAC [Fam1B.1 aminoacylation ribozyme variant] , test system: biotinyl-Met-oxazolone
0.74

# return self-aminoacylation for GUUACCCUGGUCAUUGAGUGA [Fam2.1 aminoacylation ribozyme variant] , test system: biotinyl-Met-oxazolone
10.2

###

# Test system: biotinyl-Val-oxazolone
# PROTOCOL_DETAILS: self-aminoacylation, catalytic enhancement (BVO) (fold over background); higher = more active; k-Seq, kA / k0A0; sequences stand for … in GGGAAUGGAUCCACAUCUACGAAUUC…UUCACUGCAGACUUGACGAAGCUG
Fewer inactive variants are shown than the library holds.
Please use yes (1) whenever self-aminoacylation is not below 2, and no (0) whenever it is.

Kindly determine if self-aminoacylation recorded for CUACAUCAAACAAUCGGUCUG [Fam1A.1 aminoacylation ribozyme variant] is above or exactly 2.
no (0)

Kindly determine if self-aminoacylation recorded for AGUCACCUAGGUCAUCGGGUG [Fam2.2 aminoacylation ribozyme variant] is above or exactly 2.
yes (1)

Kindly determine if self-aminoacylation recorded for AAGUUGGCGAAUAGUCGCAAG [Fam3.1 aminoacylation ribozyme variant] is above or exactly 2.
no (0)

Kindly determine if self-aminoacylation recorded for AUUUCCCUGGUCAUCUAGUGA [Fam2.1 aminoacylation ribozyme variant] is above or exactly 2.
yes (1)

Kindly determine if self-aminoacylation recorded for AGUCAGCUAGGUCAUCGGGUG [Fam2.2 aminoacylation ribozyme variant] is above or exactly 2.
yes (1)

Kindly determine if self-aminoacylation recorded for AUGUUUACUAAUAGUCGCAAG [Fam3.1 aminoacylation ribozyme variant] is above or exactly 2.
no (0)

Kindly determine if self-aminoacylation recorded for AUAACCCUGGUCAUCGAGUCA [Fam2.1 aminoacylation ribozyme variant] is above or exactly 2.
no (0)

Kindly determine if self-aminoacylation recorded for CUACUUCAAACAAAAGGUCUG [Fam1A.1 aminoacylation ribozyme variant] is above or exactly 2.
no (0)

Kindly determine if self-aminoacylation recorded for AAGUUUGCUAAUACUCGCCAG [Fam3.1 aminoacylation ribozyme variant] is above or exactly 2.
no (0)

###

# Test system: biotinyl-Val-oxazolone
# PROTOCOL_DETAILS: self-aminoacylation, catalytic enhancement (BVO) (fold over background); higher = more active; k-Seq, kA / k0A0; sequences stand for … in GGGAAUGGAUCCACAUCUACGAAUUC…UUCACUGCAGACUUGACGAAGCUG
This sample holds only a part of the variants without activity.
Please use y whenever self-aminoacylation is not below 1, and n whenever it is.

Kindly determine if self-aminoacylation recorded for AUUACCCUGGUCAACGACUGA [Fam2.1 aminoacylation ribozyme variant] is above or exactly 1.
n

Kindly determine if self-aminoacylation recorded for CCACACUUCUAACAAUCGGUC [Fam1B.1 aminoacylation ribozyme variant] is above or exactly 1.
n

Kindly determine if self-aminoacylation recorded for AGUCAUCUAGGUCAUCGGGUG [Fam2.2 aminoacylation ribozyme variant] is above or exactly 1.
y

Kindly determine if self-aminoacylation recorded for AAGUUUGCUAAUAGUACCAAG [Fam3.1 aminoacylation ribozyme variant] is above or exactly 1.
y

Kindly determine if self-aminoacylation recorded for CUUCUUCAAACAAUCGGUAUG [Fam1A.1 aminoacylation ribozyme variant] is above or exactly 1.
n

Kindly determine if self-aminoacylation recorded for AAGUGUGCUAAUAGUCGCAAA [Fam3.1 aminoacylation ribozyme variant] is above or exactly 1.
y

Kindly determine if self-aminoacylation recorded for CUUCUUCAAGCAAUCGGUCUG [Fam1A.1 aminoacylation ribozyme variant] is above or exactly 1.
n

Kindly determine if self-aminoacylation recorded for AUUACCCUGGUCGUCGAGUAA [Fam2.1 aminoacylation ribozyme variant] is above or exactly 1.
y

Kindly determine if self-aminoacylation recorded for CAACUUCAUACAAUCGGUCUG [Fam1A.1 aminoacylation ribozyme variant] is above or exactly 1.
n

###

# Test system: biotinyl-Met-oxazolone
# PROTOCOL_DETAILS: self-aminoacylation, catalytic enhancement (BMO) (fold over background); higher = more active; k-Seq, kA / k0A0; sequences stand for … in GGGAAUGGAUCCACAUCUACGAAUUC…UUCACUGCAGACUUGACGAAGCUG
Fewer inactive variants are shown than the library holds.
Please go through the items and note down their self-aminoacylation.
Please reply with the value in numeric form only.

Specify measured self-aminoacylation for AUAUUUCAAACAAUCGGUCUG [Fam1A.1 aminoacylation ribozyme variant] .
0.844

Specify measured self-aminoacylation for CCACAGUUCAAGCAGUCGGUC [Fam1B.1 aminoacylation ribozyme variant] .
1.01

Specify measured self-aminoacylation for AUUACCCUGGUCAUGGAGAGA [Fam2.1 aminoacylation ribozyme variant] .
0.941

Specify measured self-aminoacylation for GUUUCCCUGGUCAUCGAGUGA [Fam2.1 aminoacylation ribozyme variant] .
14.6

###

# Tested on: biotinyl-Met-oxazolone
# PROTOCOL_DETAILS: self-aminoacylation, catalytic enhancement (BMO) (fold over background); higher = more active; k-Seq, kA / k0A0; sequences stand for … in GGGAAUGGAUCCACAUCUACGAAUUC…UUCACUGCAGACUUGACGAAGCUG
This sample holds only a part of the variants without activity.
Please go through the items and note down their self-aminoacylation.
Please reply with the value in numeric form only.

# return self-aminoacylation for AAGAUUACUAAUAGUCGCAAG [Fam3.1 aminoacylation ribozyme variant] , test system: biotinyl-Met-oxazolone
1.77

# return self-aminoacylation for AAUCCCCUGGUCAUCGAGUGA [Fam2.1 aminoacylation ribozyme variant] , test system: biotinyl-Met-oxazolone
6.29

# return self-aminoacylation for AUUCAUCUAGGUCAUCCGGUG [Fam2.2 aminoacylation ribozyme variant] , test system: biotinyl-Met-oxazolone
6.61

# return self-aminoacylation for AUUCAACUCGGUCAUCGGGUG [Fam2.2 aminoacylation ribozyme variant] , test system: biotinyl-Met-oxazolone
6.48

# return self-aminoacylation for AUACUUCAAACAAUCGGUGUG [Fam1A.1 aminoacylation ribozyme variant] , test system: biotinyl-Met-oxazolone
1.22

# return self-aminoacylation for CUACUUAAAACACUCGGUCUG [Fam1A.1 aminoacylation ribozyme variant] , test system: biotinyl-Met-oxazolone
0.758

# return self-aminoacylation for CCACUUCAAACAAUCGGUUUG [Fam1A.1 aminoacylation ribozyme variant] , test system: biotinyl-Met-oxazolone
1.37

# return self-aminoacylation for AUUCACCUAGGUCAACGGGCG [Fam2.2 aminoacylation ribozyme variant] , test system: biotinyl-Met-oxazolone
2.85

# return self-aminoacylation for AAGUUUGCUAAUAGCCACAAG [Fam3.1 aminoacylation ribozyme variant] , test system: biotinyl-Met-oxazolone
0.55

# return self-aminoacylation for AUUCACGUAGGUAAUCGGGUG [Fam2.2 aminoacylation ribozyme variant] , test system: biotinyl-Met-oxazolone
3.84

# return self-aminoacylation for AAGUUUGCUAAAAGUCGGAAG [Fam3.1 aminoacylation ribozyme variant] , test system: biotinyl-Met-oxazolone
0.755

# return self-aminoacylation for CCAGACUUCAGGCAAUCGGUC [Fam1B.1 aminoacylation ribozyme variant] , test system: biotinyl-Met-oxazolone
1.36

# return self-aminoacylation for GUACUUCAAACACUCGGUCUG [Fam1A.1 aminoacylation ribozyme variant] , test system: biotinyl-Met-oxazolone
1.31

# return self-aminoacylation for CUACUUCGAACCAUCGGUCUG [Fam1A.1 aminoacylation ribozyme variant] , test system: biotinyl-Met-oxazolone
0.813

# return self-aminoacylation for AACUUUGCUAACAGUCGCAAG [Fam3.1 aminoacylation ribozyme variant] , test system: biotinyl-Met-oxazolone
2.15

# return self-aminoacylation for CUACUUCAACCAAUCGGACUG [Fam1A.1 aminoacylation ribozyme variant] , test system: biotinyl-Met-oxazolone
0.814

# return self-aminoacylation for AUUACCCUGGUCAUCGCGCGA [Fam2.1 aminoacylation ribozyme variant] , test system: biotinyl-Met-oxazolone
4.45

# return self-aminoacylation for CGACACUUCAAGCAAUCGGCC [Fam1B.1 aminoacylation ribozyme variant] , test system: biotinyl-Met-oxazolone
1.79
